Known Inhibition zone of a selection of compounds
system: Bacillus cereus; assay: In Vitro growth inhibitory effect of compounds against Gram-Positive Bacteria Bacillus cereus ATCC 14579; assay type: functional
State just the number; it will be interpreted in mm.

Consider the reported Inhibition zone for these compounds:
>>> endpoint_value("CO[C@H]1[C@H](O)[C@@H](O)[C@H](n2c3c(Cl)cccc3c3c4c(c5c6cccc(Cl)c6[nH]c5c32)C(=O)NC4=O)O[C@@H]1CO")
9
>>> endpoint_value("CO[C@H]1[C@H](O)[C@@H](O)[C@H](n2c3ccccc3c3c4c(c5c6ccccc6[nH]c5c32)C(=O)NC4=O)O[C@@H]1CO")
7
>>> endpoint_value("CO[C@H]1[C@H](O)[C@@H](O)[C@H](n2c3ccccc3c3c4c(c5c6ccccc6[nH]c5c32)C(=O)N(C)C4)O[C@@H]1CO.CO[C@H]1[C@H](O)[C@@H](O)[C@H](n2c3ccccc3c3c4c(c5c6ccccc6[nH]c5c32)CN(C)C4=O)O[C@@H]1CO")
9
>>> endpoint_value("CO[C@H]1[C@H](OC=O)[C@@H](O)[C@H](n2c3ccccc3c3c4c(c5c6ccccc6[nH]c5c32)C(=O)OC4=O)O[C@@H]1CO")
8

Attention now shifts to the item below.
Considering CO[C@H]1[C@H](O)[C@@H](O)[C@H](n2c3ccccc3c3c4c(c5c6ccccc6n(C)c5c32)C(=O)N(C)C4=O)O[C@@H]1CO , its Inhibition zone with Bacillus cereus was recorded as 8

* * *

system: CEM-SS; test: Cytotoxic concentration is tested against CEM-SS cells; format: functional; settings: Homo sapiens
readout_kind: CC50 (µM)
Just the number in µM, nothing appended.

Below are worked cases with known answers.
>>> endpoint_value("CO[C@H]1[C@H](O)[C@@H](O)[C@H](n2c3c(Cl)cccc3c3c4c(c5c6cccc(Cl)c6[nH]c5c32)C(=O)NC4)O[C@@H]1CO.CO[C@H]1[C@H](O)[C@@H](O)[C@H](n2c3c(Cl)cccc3c3c4c(c5c6cccc(Cl)c6[nH]c5c32)CNC4=O)O[C@@H]1CO")
1.15
>>> endpoint_value("CO[C@H]1[C@H](O)[C@@H](O)[C@H](n2c3ccccc3c3c4c(c5c6ccccc6[nH]c5c32)C(=O)N(C)C4)O[C@@H]1CO.CO[C@H]1[C@H](O)[C@@H](O)[C@H](n2c3ccccc3c3c4c(c5c6ccccc6[nH]c5c32)CN(C)C4=O)O[C@@H]1CO")
8.38
>>> endpoint_value("CO[C@H]1[C@H](O)[C@@H](O)[C@H](n2c3ccccc3c3c4c(c5c6ccccc6[nH]c5c32)C(=O)N(C)C4=O)O[C@@H]1CO")
7.96

The compound CO[C@H]1[C@H](O)[C@@H](O)[C@H](n2c3ccccc3c3c4c(c5c6ccccc6[nH]c5c32)C(=O)NC4)O[C@@H]1CO.CO[C@H]1[C@H](O)[C@@H](O)[C@H](n2c3ccccc3c3c4c(c5c6ccccc6[nH]c5c32)CNC4=O)O[C@@H]1CO , tested on CEM-SS, showed CC50 of 14.3

* * *

test system: P388; assay: Antiproliferative activity measured against P388 Leukemia cells; assay type: functional, cell-based, Mus musculus; settings: Mus musculus, P388
In this section, each of the compounds is paired with its reported pIC50.
pIC50 (log units): -log10 of the concentration in mol/L.

>>> endpoint_value("CO[C@H]1[C@H](O)[C@@H](O)[C@H](n2c3ccccc3c3c4c(c5c6ccccc6[nH]c5c32)C(=O)NC4=O)O[C@@H]1CO")
6.16
>>> endpoint_value("CO[C@H]1[C@H](O)[C@@H](O)[C@H](n2c3ccc(Br)cc3c3c4c(c5c6cc(Br)ccc6[nH]c5c32)C(=O)OC4=O)O[C@@H]1CO")
6.04

Quick note, pIC50 for CO[C@H]1[C@H](O)[C@@H](O)[C@H](n2c3ccccc3c3c4c(c5c6ccccc6[nH]c5c32)C(=O)OC4=O)O[C@@H]1CO landed at 5.20

* * *

Biological target: DNA topoisomerase 1 (Homo sapiens)
Sequence (whole entry): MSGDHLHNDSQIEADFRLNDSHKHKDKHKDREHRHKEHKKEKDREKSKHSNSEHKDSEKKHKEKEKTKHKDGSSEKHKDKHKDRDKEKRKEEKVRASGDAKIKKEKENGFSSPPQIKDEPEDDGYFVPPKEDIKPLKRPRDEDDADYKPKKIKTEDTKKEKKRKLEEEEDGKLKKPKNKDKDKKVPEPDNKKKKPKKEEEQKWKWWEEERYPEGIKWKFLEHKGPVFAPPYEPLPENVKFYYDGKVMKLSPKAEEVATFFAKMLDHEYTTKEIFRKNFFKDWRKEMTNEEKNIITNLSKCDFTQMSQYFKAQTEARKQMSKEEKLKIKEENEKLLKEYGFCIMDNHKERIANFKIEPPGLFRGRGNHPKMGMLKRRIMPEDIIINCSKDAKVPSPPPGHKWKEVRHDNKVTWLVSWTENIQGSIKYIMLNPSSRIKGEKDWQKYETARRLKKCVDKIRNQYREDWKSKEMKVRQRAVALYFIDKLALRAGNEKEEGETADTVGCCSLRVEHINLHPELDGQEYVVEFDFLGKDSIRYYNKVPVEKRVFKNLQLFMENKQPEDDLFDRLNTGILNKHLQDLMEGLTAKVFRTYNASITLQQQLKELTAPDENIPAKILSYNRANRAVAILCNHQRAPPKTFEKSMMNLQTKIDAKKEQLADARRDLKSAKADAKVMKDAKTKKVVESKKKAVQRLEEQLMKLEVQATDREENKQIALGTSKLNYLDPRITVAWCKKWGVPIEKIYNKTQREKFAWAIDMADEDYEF
Assay: Inhibition of human Topoisomerase I
MIC vs 2 µM: less than gives y; not less than gives n.

>>> category_label("CO[C@H]1[C@H](O)[C@@H](O)[C@H](n2c3ccccc3c3c4c(c5c6ccccc6[nH]c5c32)C(=O)NC4)O[C@@H]1CO.CO[C@H]1[C@H](O)[C@@H](O)[C@H](n2c3ccccc3c3c4c(c5c6ccccc6[nH]c5c32)CNC4=O)O[C@@H]1CO")
"y"
>>> category_label("CO[C@H]1[C@H](O)[C@@H](O)[C@H](n2c3c(Cl)cccc3c3c4c(c5c6cccc(Cl)c6[nH]c5c32)C(=O)NC4)O[C@@H]1CO.CO[C@H]1[C@H](O)[C@@H](O)[C@H](n2c3c(Cl)cccc3c3c4c(c5c6cccc(Cl)c6[nH]c5c32)CNC4=O)O[C@@H]1CO")
"y"
>>> category_label("CO[C@H]1[C@H](O)[C@@H](O)[C@H](n2c3ccccc3c3c4c(c5c6ccccc6[nH]c5c32)C(=O)N(C)C4)O[C@@H]1CO.CO[C@H]1[C@H](O)[C@@H](O)[C@H](n2c3ccccc3c3c4c(c5c6ccccc6[nH]c5c32)CN(C)C4=O)O[C@@H]1CO")
"n"
>>> category_label("CO[C@H]1[C@H](O)[C@@H](O)[C@H](n2c3ccccc3c3c4c(c5c6ccccc6n(C)c5c32)C(=O)OC4=O)O[C@@H]1CO")
"n"
>>> category_label("CO[C@H]1[C@H](O)[C@@H](O)[C@H](n2c3ccccc3c3c4c(c5c6ccccc6[nH]c5c32)C(=O)NC4=O)O[C@@H]1CO")
"y"

QUERY: Dear reviewer, please state whether CO[C@H]1[C@H](O)[C@@H](O)[C@H](n2c3ccc(Br)cc3c3c4c(c5c6cc(Br)ccc6[nH]c5c32)C(=O)OC4=O)O[C@@H]1CO has MIC strictly beneath 2 µM.
RESULT: y

QUERY: Determine whether this molecule shows MIC lower than 2 µM (ties excluded): CO[C@H]1[C@H](O)[C@@H](O)[C@H](n2c3ccccc3c3c4c(c5c6ccccc6n(C)c5c32)C(=O)N(C)C4=O)O[C@@H]1CO
RESULT: n

QUERY: Consider the molecule CO[C@H]1[C@H](OC=O)[C@@H](O)[C@H](n2c3ccccc3c3c4c(c5c6ccccc6[nH]c5c32)C(=O)OC4=O)O[C@@H]1CO . Is its MIC strictly less than 2 µM?
RESULT: n

QUERY: Confirm or reject: MIC of CO[C@H]1[C@H](O)[C@@H](O)[C@H](n2c3c(Cl)cccc3c3c4c(c5c6cccc(Cl)c6[nH]c5c32)C(=O)N(C)C4)O[C@@H]1CO.CO[C@H]1[C@H](O)[C@@H](O)[C@H](n2c3c(Cl)cccc3c3c4c(c5c6cccc(Cl)c6[nH]c5c32)CN(C)C4=O)O[C@@H]1CO lies strictly below 2 µM
RESULT: n

* * *

test system: CEM-SS; assay: Cytotoxic concentration is tested against CEM-SS cells; format: functional; details: Homo sapiens
readout_kind: CC50 (µM)
Quick reminder: number only, in µM, skip the unit.

>>> endpoint_value("CO[C@H]1[C@H](O)[C@@H](O)[C@H](n2c3c(Cl)cccc3c3c4c(c5c6cccc(Cl)c6[nH]c5c32)C(=O)NC4=O)O[C@@H]1CO")
1.05
>>> endpoint_value("CO[C@H]1[C@H](O)[C@@H](O)[C@H](n2c3ccc(Br)cc3c3c4c(c5c6cc(Br)ccc6[nH]c5c32)C(=O)OC4=O)O[C@@H]1CO")
9.39

Let's switch to this compound now.
Reported CC50 of CO[C@H]1[C@H](O)[C@@H](O)[C@H](n2c3c(Cl)cccc3c3c4c(c5c6cccc(Cl)c6[nH]c5c32)C(=O)N(C)C4=O)O[C@@H]1CO (stereo in doubt; A) : 8.06

# credit: ChEMBL document CHEMBL1131383
